# run description: Stability of cannabinoid and Vitamin E components of Beverage 1 (AB White) stored at 8° C. and 21-25° C., LCMSMS over 570 days
# Format: physicochemical
# measurement conditions: beverage stored at 21-25° C., day 5
Here the recorded Stability in AB White, 21-25° C. (content by LCMSMS) is given for each entry.
Answer format: numeric, µg/mL implied, no suffix.

The following molecules have reported results that may help.
* CCCCCc1cc(O)c2c(c1)OC(C)(C)c1ccc(C)cc1-2 | 2.80
* CCCCCc1cc(O)c2c(c1)OC1(C)CCC3C1C2C3(C)C (stereo not drawn) | 0.530
* CCCc1cc(O)c2c(c1)OC(C)(C)[C@@H]1CCC(C)=C[C@@H]21 [THCV, delta-9-tetrahydrocannabivarin] | 3.55
* CCCCCc1cc(O)c2c(c1)OC(C)(CCC=C(C)C)C=C2 (stereo not drawn) | 0.323
* CCCCCc1cc2c(c(O)c1C(=O)O)[C@@H]1C=C(C)CC[C@H]1C(C)(C)O2 [D9 THCA, delta-9-tetrahydrocannabinolic acid] | 0.958
* C=C(C)[C@@H]1CCC(C)=C[C@H]1c1c(O)cc(CCC)cc1O | 0.144
* CCCCCc1cc(O)c(C/C=C(\C)CCC=C(C)C)c(O)c1 | 4.89
* CCCCCc1cc(O)c2c(c1)OC(C)(C)[C@@H]1CCC(C)=C[C@@H]21 [D9 THC, delta-9-tetrahydrocannabinol, reference compound] | 12.1

-- ask Name the recorded Stability in AB White, 21-25° C. (content by LCMSMS) of the molecule listed here: `C=C(C)[C@@H]1CCC(C)=C[C@H]1c1c(O)cc(CCCCC)c(C(=O)O)c1O`
-- reply 1.69
